target: T1, Lsb3, P43603
T1 sequence (P43603 385-451, looked up): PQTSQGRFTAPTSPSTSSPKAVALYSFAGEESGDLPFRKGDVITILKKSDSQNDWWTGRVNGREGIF
experiment: SPOT array
measurement_parameters: median of control spots 406
Attribute: SPOT intensity
measured_quantity: SPOT intensity

INSERT INTO measurements (binder, measured_quantity, reported_value) VALUES
  ('LLGRKRPVMERVVDI', 'SPOT intensity', 4),
  ('DKKTKPTPPPKPSHL', 'SPOT intensity', 24),
  ('NNNKMRPHLPPLSSG', 'SPOT intensity', 1),
  ('FVLRYYILIPHEQWD', 'SPOT intensity', 0),
  ('AIPPPVPNRPGGTTN', 'SPOT intensity', 453),
  ('DLPLPDLPPEPPTEL', 'SPOT intensity', 0),
  ('QQEQNTPPLPPKPKS', 'SPOT intensity', 923);
